Parameter: melting point

// CC#CC(=O)Nc1cc(Nc2nccc(-n3ccc4ccccc43)n2)c(OC)cc1N(C)CCN(C)C [Compound 73] : melting point value = 189.7 to 191.8 °C

// C=CC(=O)Nc1cc(Nc2nccc(-n3c(=O)n(C)c4cc(C#N)ccc43)n2)c(OC)cc1N(C)CCN(C)C [Compound 52] : melting point value = 183 to 185 °C

// C=CC(=O)Nc1cc(Nc2nccc(-n3c(=O)n(C(C)C)c4ccccc43)n2)c(C)cc1N(C)CCN(C)C [Compound 127] : melting point value = 179 to 181 °C

// C/C=C/C(=O)Nc1cc(Nc2nccc(-n3ccc4ccccc43)n2)c(OC)cc1N(C)CCN(C)C [Compound 66] : melting point value = 150.2 to 152.8 °C

// C=CC(=O)Nc1cc(Nc2nccc(-n3ccc4ccc(F)cc43)n2)c(OC)cc1N(C)CCN(C)C [Compound 29] : melting point value = 164 to 165 °C

// C=CC(=O)Nc1cc(Nc2nccc(-n3c(=O)n(C4CC4)c4cc(F)ccc43)n2)c(OC)cc1N(C)CCN(C)C [Compound 98] : melting point value = 181 to 184 °C

// C=CC(=O)Nc1cc(Nc2nccc(-n3c(=O)n(C)c4ccccc43)n2)c(OCCOC)cc1N(C)CCN(C)C [Compound 120] : melting point value = 71 to 78 °C

// C=CC(=O)Nc1cc(Nc2nccc(-n3ccc4ccccc43)n2)c(OC)cc1N1CC[C@@H](N(C)C)C1 [Compound 79] : melting point value = 161 to 162 °C

Origin of values: patent US11267802B2
